meta.source: PubChem BioAssay AID372

target: Gag-Pol polyprotein (Human immunodeficiency virus type 1 group M subtype B (isolate HXB2)) (UniProt P04585); test: RNase H inhibition, HIV 1 Gag Pol polyprotein, FRET biochemical assay, screening (AID 372); conditions: HIV-1 RT RNase H, FRET RNA/DNA substrate fluorescence; at 10 µM
Out of some 100,000 compounds screened, about 770 (0.77%) were called active. No stated cut-off is given here; in the data, active means inhibition above about 50%; inactive means the rest. The sample holds actives, similar compounds and a random draw of the others, so the mix is not that of the screen.
Pick one and only one: active, inactive

Some entries whose results are on file:
-- ask Assay result, entry "COc1ccc(OC)c(NC(=O)c2ccc(N(C)S(=O)(=O)c3ccccc3)cc2)c1" — outcome?
-- reply inactive

-- ask # lookup: test call for "COc1ccc(C(=O)NC(NC(=O)c2ccc(OC)c(OC)c2)c2ccc(Br)cc2)cc1OC"
-- reply inactive

-- ask Just curious, what result did "O=C1S/C(=C/c2cccc(O)c2)C(=O)N1c1ccccc1" get here?
-- reply inactive

-- ask What was the test verdict on "Oc1ccc(/C=N/Nc2nncc(-c3ccccc3)n2)cc1" ?
-- reply inactive

-- ask Record lookup: outcome of this test for "C/C(=N/Nc1cc(-c2ccccc2)nc(-c2ccccc2)n1)c1ccc(O)cc1" ?
-- reply inactive

-- ask What was the test verdict on "O=C1S/C(=C/c2ccc(O)c(O)c2)C(=O)N1c1ccccc1" ?
-- reply active

-- ask # fetch the recorded call for "O=c1[nH]c(O)c(/C=C2\C=Nc3ccccc32)[nH]1" here
-- reply inactive

-- ask Check the results log: what was the call for "Fc1ccccc1OCCn1ccnc1" ?
-- reply inactive

New cases:
-- ask // return assay outcome for "O=C1/C(=C/c2cccc(O)c2)SC(=S)N1c1cccc(Cl)c1"
-- reply inactive

-- ask Hey, what did the test say about "CS(=O)(=O)N(CC(=O)NCCSc1ccc(Cl)cc1)c1ccc(Br)cc1" ?
-- reply inactive

-- ask Test call for this molecule, please: "CCCOC(=O)c1ccc(NC(=O)c2cccc([N+](=O)[O-])c2)cc1"
-- reply inactive
